# Tested on: M. tuberculosis H37Rv growth inhibition
# Experiment: Mycobacterium tuberculosis H37Rv growth inhibition, putative kinase inhibitor library, confirmatory dose response (AID 2842);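 further: bacteria incubated one week before Alamar blue readout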
Assay endpoint: IC90

Compound: O=C(CCc1ccccc1)Nc1nnc(-c2cc(Cl)ccc2Cl)o1
Assayed system: M. tuberculosis H37Rv growth inhibition
Observed measurement: 26.6 µg/mL

Compound: COc1cc2ccccc2cc1C(=O)Nc1nnc(-c2cc(Cl)ccc2Cl)o1
Assayed system: M. tuberculosis H37Rv growth inhibition
Observed measurement: 27.6 µg/mL

Compound: COc1cccc(/C=N/Nc2nncc(=O)[nH]2)c1O
Assayed system: M. tuberculosis H37Rv growth inhibition
Observed measurement: 0.43 µg/mL

Compound: CCCCC(=O)Nc1nc(-c2ccccc2)c(C(C)=O)s1
Assayed system: M. tuberculosis H37Rv growth inhibition
Observed measurement: 13.7 µg/mL

Compound: O=C(Nc1nnc(-c2ccc3c(c2)CCCC3)o1)c1c(F)cccc1F
Assayed system: M. tuberculosis H37Rv growth inhibition
Observed measurement: 4.5 µg/mL

Compound: Cc1nnc2ccc(-c3cccc(NC(=O)c4cccc(C(F)(F)F)c4)c3)nn12
Assayed system: M. tuberculosis H37Rv growth inhibition
Observed measurement: 22.6 µg/mL

Compound: COc1cc2c(=O)c(C(=O)c3ccc(F)cc3)cn(Cc3ccc(C)cc3)c2cc1OC
Assayed system: M. tuberculosis H37Rv growth inhibition
Observed measurement: 7.24 µg/mL

Compound: Fc1cccc2sc(N3CCCC3)nc12
Assayed system: M. tuberculosis H37Rv growth inhibition
Observed measurement: 86.3 µg/mL

Compound: Cc1ccc(Nc2nc(N3CCN(c4ccccc4)CC3)nc3nccnc23)cc1C
Assayed system: M. tuberculosis H37Rv growth inhibition
Observed measurement: 32 µg/mL

Compound: O=C1CC(c2nc3ccccc3n2Cc2ccccc2Cl)CN1c1ccccc1F (stereo not given)
Assayed system: M. tuberculosis H37Rv growth inhibition
Observed measurement: 18.1 µg/mL

Compound: O=C(Nc1nc(-c2ccc3c(c2)OCCO3)cs1)c1cccc(C(F)(F)F)c1
Assayed system: M. tuberculosis H37Rv growth inhibition
Observed measurement: 13.9 µg/mL

Compound: CN1CCc2c(sc(NC(=O)c3ccc([N+](=O)[O-])o3)c2C(N)=O)C1
Assayed system: M. tuberculosis H37Rv growth inhibition
Observed measurement: 10.5 µg/mL

Compound: O=C(Nc1nnc(-c2ccco2)o1)c1cccc(Oc2ccccc2)c1
Assayed system: M. tuberculosis H37Rv growth inhibition
Observed measurement: 3.31 µg/mL

Compound: O=C(Cc1ccccc1)Nc1nnc(-c2ccc(Cl)cc2)o1
Assayed system: M. tuberculosis H37Rv growth inhibition
Observed measurement: 14.1 µg/mL

Compound: COc1ccccc1Cn1cc2c(-c3ccccc3)nnc-2c2cc(OC)c(OC)cc21
Assayed system: M. tuberculosis H37Rv growth inhibition
Observed measurement: 7.59 µg/mL

Compound: Cc1ccc(C)c(-c2nnc(NC(=O)c3ccc(C#N)cc3)o2)c1
Assayed system: M. tuberculosis H37Rv growth inhibition
Observed measurement: 23.1 µg/mL

Compound: CSc1ccc2nc(Nc3cccc(C)c3C)sc2c1
Assayed system: M. tuberculosis H37Rv growth inhibition
Observed measurement: 18.8 µg/mL

Compound: CCN(c1ccccc1)S(=O)(=O)c1ccc(C(=O)Nc2ccc3ncsc3c2)cc1
Assayed system: M. tuberculosis H37Rv growth inhibition
Observed measurement: 14.7 µg/mL

Compound: CCOC(=O)N1CCc2c(sc(NC(=O)c3ccc(Oc4ccccc4)cc3)c2C(N)=O)C1
Assayed system: M. tuberculosis H37Rv growth inhibition
Observed measurement: 0.98 µg/mL

Compound: c1c2c(cc3sc(N4CCCC4)nc13)OCO2
Assayed system: M. tuberculosis H37Rv growth inhibition
Observed measurement: < 0.2 µg/mL

Compound: Cc1ccc(C)c(-c2nnc(NC(=O)c3ccc(S(=O)(=O)N4CCc5ccccc54)cc3)o2)c1
Assayed system: M. tuberculosis H37Rv growth inhibition
Observed measurement: 12.4 µg/mL

Compound: CSc1ccccc1-c1nnc(NC(=O)c2cc(Cl)sc2Cl)o1
Assayed system: M. tuberculosis H37Rv growth inhibition
Observed measurement: 11.7 µg/mL

Compound: O=C(CCSc1ccccc1)Nc1nnc(-c2ccc3c(c2)OCCO3)o1
Assayed system: M. tuberculosis H37Rv growth inhibition
Observed measurement: 16.8 µg/mL

Compound: COc1ccc2sc(Nc3nc(-c4ccccn4)cs3)nc2c1
Assayed system: M. tuberculosis H37Rv growth inhibition
Observed measurement: 1.59 µg/mL

Compound: O=C(Nc1nnc(-c2ccc(Cl)s2)o1)c1c(F)cccc1F
Assayed system: M. tuberculosis H37Rv growth inhibition
Observed measurement: 3.8 µg/mL

Compound: O=C(Nc1nnc(-c2ccc(Cl)s2)o1)c1nc2ccccc2s1
Assayed system: M. tuberculosis H37Rv growth inhibition
Observed measurement: 4.81 µg/mL

Compound: O=C(Nc1nnc(-c2ccc(Br)cc2)o1)c1ccc2c(c1)CCCC2
Assayed system: M. tuberculosis H37Rv growth inhibition
Observed measurement: 16.8 µg/mL

Compound: COc1ccc(Cn2cc(C(=O)c3ccc(C)cc3)c(=O)c3cc(OC)c(OC)cc32)cc1
Assayed system: M. tuberculosis H37Rv growth inhibition
Observed measurement: 7.05 µg/mL

Compound: Cc1ccc(-c2nnc(NC(=O)COc3ccccc3)o2)c(C)c1
Assayed system: M. tuberculosis H37Rv growth inhibition
Observed measurement: 5.5 µg/mL

Compound: CC(C)(C)c1ccc(C(=O)Nc2nnc(-c3ccco3)o2)cc1
Assayed system: M. tuberculosis H37Rv growth inhibition
Observed measurement: 1.18 µg/mL

Compound: O=C(NNc1nc2ccc(Cl)cc2s1)c1nc2ccccc2s1
Assayed system: M. tuberculosis H37Rv growth inhibition
Observed measurement: 3.15 µg/mL

Compound: Cc1cccc2sc(NNC(=O)c3cc(-c4cccs4)nc4ccccc34)nc12
Assayed system: M. tuberculosis H37Rv growth inhibition
Observed measurement: 22.8 µg/mL

Compound: O=[n+]1c2ccccc2n([O-])c2ccccc21
Assayed system: M. tuberculosis H37Rv growth inhibition
Observed measurement: 3.52 µg/mL

Compound: O=C(Nc1nnc(-c2cccs2)o1)c1ccco1
Assayed system: M. tuberculosis H37Rv growth inhibition
Observed measurement: 3.41 µg/mL

Compound: CCOc1ccc(-c2[nH]ncc2-c2ccc(Cl)cc2)c(O)c1
Assayed system: M. tuberculosis H37Rv growth inhibition
Observed measurement: 7.06 µg/mL

Compound: COc1ccc(CCNc2cnnc(NCCc3ccc(OC)cc3)n2)cc1
Assayed system: M. tuberculosis H37Rv growth inhibition
Observed measurement: 24.5 µg/mL

Compound: CCSc1ccc(C(=O)Nc2nnc(-c3ccco3)o2)cc1
Assayed system: M. tuberculosis H37Rv growth inhibition
Observed measurement: 0.71 µg/mL

Compound: COc1ccc(-c2nnc(NC(=O)c3ccccc3F)o2)cc1
Assayed system: M. tuberculosis H37Rv growth inhibition
Observed measurement: 66.9 µg/mL

Compound: Cc1cc2cc(CNC(=O)C(=O)c3c[nH]c4ccccc34)ccc2[nH]1
Assayed system: M. tuberculosis H37Rv growth inhibition
Observed measurement: 8.44 µg/mL

Compound: CCN(CC)S(=O)(=O)c1ccc(C(=O)Nc2nnc(-c3cc(Cl)ccc3Cl)o2)cc1
Assayed system: M. tuberculosis H37Rv growth inhibition
Observed measurement: 7.57 µg/mL

Compound: O=C(Nc1nnc(-c2ccco2)o1)C1CCCCC1
Assayed system: M. tuberculosis H37Rv growth inhibition
Observed measurement: 50.4 µg/mL

Compound: Cc1cccc(Cn2c(N3CCN(Cc4ccc(Cl)cc4)CC3)nc3c2c(=O)[nH]c(=O)n3C)c1
Assayed system: M. tuberculosis H37Rv growth inhibition
Observed measurement: 3.15 µg/mL

Compound: Cc1ccc(-c2nnc(NC(=O)c3c(F)cccc3F)o2)c(C)c1
Assayed system: M. tuberculosis H37Rv growth inhibition
Observed measurement: 1.25 µg/mL

Compound: Cc1ccc2sc(NNC(=O)c3coc4ccccc4c3=O)nc2c1C
Assayed system: M. tuberculosis H37Rv growth inhibition
Observed measurement: 34.9 µg/mL

Compound: CCCCOc1ccc(C(=O)Nc2nnc(-c3ccccn3)o2)cc1
Assayed system: M. tuberculosis H37Rv growth inhibition
Observed measurement: 11.6 µg/mL

###

# maps each entry to its IC90
# System: M. tuberculosis H37Rv growth inhibition
# Experiment: Mycobacterium tuberculosis H37Rv growth inhibition, putative kinase inhibitor library, confirmatory dose response (AID 2842);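 further: bacteria incubated one week before Alamar blue readout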

Compound: CCOC(=O)CNC(=O)CSc1ncnc2c1nnn2Cc1ccccc1F
IC90: 3.38 µg/mL
//
Compound: Cc1n[nH]c(=O)nc1N/N=C/c1cccc(OCc2ccccc2Cl)c1
IC90: 35.9 µg/mL
//
Compound: Cc1ccc(C)c(-c2nnc(NC(=O)c3ccc(Cl)cc3Cl)o2)c1
IC90: 2.21 µg/mL
//
Compound: C=CCNC(=S)NNc1ccc([N+](=O)[O-])cc1
IC90: 10 µg/mL
//
Compound: Cc1ccc(-c2nnc(NC(=O)c3ccccc3[N+](=O)[O-])o2)c(C)c1
IC90: 15.7 µg/mL
//
Compound: O=C(Nc1nc2c(s1)CCc1ccccc1-2)c1cccc(Cl)c1
IC90: 12.4 µg/mL
//
Compound: O=C(OCn1nnc2ccccc2c1=O)c1ccccc1
IC90: 1.41 µg/mL
//
Compound: O=C1N/C(=N\N=C\c2ccccc2O)SC1Cc1cc(Cl)ccc1Cl (stereo not drawn)
IC90: 4.52 µg/mL
//
Compound: COC(=O)C(C)Oc1ccc2cc(-c3ccc(OC)cc3)c(=O)oc2c1 (stereo not drawn)
IC90: 1.07 µg/mL
//
Compound: CCCCOc1ccc(C(=O)N2CC(=O)Nc3ccc(Cl)cc3C2c2ccc(F)cc2)cc1 (stereo not drawn)
IC90: 13.1 µg/mL
//
Compound: O=C(CSc1ncnc2c1nnn2Cc1ccc(F)cc1)N1CCOCC1
IC90: 19.8 µg/mL
//
Compound: COC(=O)c1c2c(n3ccc(C)cc13)C(=O)c1ccccc1C2=O
IC90: 0.35 µg/mL
//
Compound: Cc1ccccc1C(=O)Nc1nnc(-c2ccc(Cl)cc2)o1
IC90: 0.55 µg/mL
//
Compound: O=C(NCCSc1c[nH]c2ccccc12)c1cc2ccccc2oc1=O
IC90: 1.58 µg/mL
//
Compound: O=C(CSc1nnc(-c2cccnc2)o1)N1CCC(Cc2ccccc2)CC1
IC90: 0.87 µg/mL
//
Compound: COc1cc2c3nnc(-c4ccc(C)c(C)c4)c-3cn(Cc3ccc(C)cc3)c2cc1OC
IC90: 1.55 µg/mL
//
Compound: Cc1ccc(-c2nnc(NC(=O)C(C)C)o2)c(C)c1
IC90: 8.43 µg/mL
//
Compound: CC(C)(C)c1ccc(C(=O)Nc2nnc(-c3ccc(S(C)(=O)=O)cc3)o2)cc1
IC90: 24.6 µg/mL
//
Compound: O=C(Nc1nnc(-c2ccc3c(c2)CCCC3)o1)c1ccc(F)cc1
IC90: 21.6 µg/mL
//
Compound: CN1CCc2c(sc(NC(=O)c3ccc4ccccc4c3)c2C(N)=O)C1
IC90: 11.9 µg/mL
//
Compound: CCOc1ccc2c(c1)O/C(=C\c1cccc(OCC(=O)OC)c1)C2=O
IC90: 1.66 µg/mL
//
Compound: Cc1ccc(C2C=C(c3ccc(Cl)cc3)Nc3ncnn32)cc1 (stereo not drawn)
IC90: 6.94 µg/mL
//
Compound: COc1ccc(-c2nnc(NC(=O)c3cc4ccccc4cc3OC)o2)cc1
IC90: 26.3 µg/mL
